# TEST DESCRIPTION: In vivo pharmacokinetic evaluation in mice by intravenous injection and oral administration
# ASSAY CONTEXT: mouse; intravenous administration 1 mg/kg, male ICR mice, plasma
MEASURED PARAMETER: clearance (mL/min/kg)
// note: answer is a bare numeric in mL/min/kg

Exam item: Give reported clearance value for `C=CC(=O)N1CCN(c2nc(=O)n(-c3c(C)ccnc3C(C)C)c3nc(-c4c(O)cccc4F)c(F)cc23)[C@@H](C)C1`
Marked response: 94.6

---

# TEST DESCRIPTION: In vivo pharmacokinetic evaluation in mice by intravenous injection and oral administration
# ASSAY CONTEXT: mouse, po; intragastric administration 5 mg/kg, male ICR mice, plasma; read-out: Cmax
MEASURED PARAMETER: Cmax (ng/mL)
// note: answer is a bare numeric in ng/mL

Exam item: Give reported Cmax value for `C=CC(=O)N1CCN(c2nc(=O)n(-c3c(C)ccnc3C(C)C)c3nc(-c4c(O)cccc4F)c(F)cc23)[C@@H](C)C1`
Marked response: 177

---

# System: NCI-H358 cells expressing KRAS-G12C
# TEST DESCRIPTION: Growth inhibition of tumor cell line expressing KRAS-G12C (Cell Titer Glo), NCI-H358
# Type: cell-based
# ASSAY CONTEXT: NCI-H358, 72 hours
Below, each entry is listed with its recorded GI50.
// note: answer is a bare numeric in µM

molecule="C=CC(=O)N1C[C@@H]2C(=O)N(C)c3c(c4cc(Cl)c(-c5ccc(F)c6nc(N)sc56)nc4n(-c4c(C)ccnc4C(C)C)c3=O)N2C[C@H]1C (single isomer, unassigned) [Compound 56B]" assayed_target="NCI-H358 cells expressing KRAS-G12C" readout_number=0.012
molecule="C=CC(=O)N1C[C@@H]2COc3c(c4cc(F)c(-c5c(O)cccc5F)c(F)c4n(-c4c(C)ccnc4C(C)C)c3=O)N2C[C@H]1C (atropisomer, axis not shown) [Compound 3B-1]" assayed_target="NCI-H358 cells expressing KRAS-G12C" readout_number=0.027

Exam item: Give reported GI50 value for C=CC(=O)N1C[C@@H]2COc3c(c4cc(F)c(-c5c(O)cccc5F)nc4n(-c4c(C)ccnc4C(C)C)c3=O)N2C[C@H]1C (single isomer, unassigned) [Compound 5B]
Marked response: 0.21

---

# TEST DESCRIPTION: In vivo pharmacokinetic evaluation in mice by intravenous injection and oral administration
# ASSAY CONTEXT: mouse, po; intragastric administration 5 mg/kg, male ICR mice, plasma
MEASURED PARAMETER: half-life
Please append the unit to your numeric answer.

Exam item: Give reported half-life value for `C=CC(=O)N1CCN(c2nc(=O)n(-c3c(C)ccnc3C(C)C)c3nc(-c4c(O)cccc4F)c(F)cc23)[C@@H](C)C1`
Marked response: 34.2 min

---

# Test system: NCI-H358 cells expressing KRAS-G12C
# TEST DESCRIPTION: Growth inhibition of tumor cell line expressing KRAS-G12C (Cell Titer Glo), NCI-H358
# Type: cell-based
# ASSAY CONTEXT: NCI-H358, 72 hours
Below, each entry is listed with its recorded GI50.
// note: answer is a bare numeric in nM

Exam item: Give reported GI50 value for C=CC(=O)N1C[C@@H]2C(=O)Nc3c(c4cc(F)c(-c5c(O)cccc5F)c(F)c4n(-c4c(C)ccnc4C(C)C)c3=O)N2C[C@H]1C [Compound 22A-1]
Marked response: 28

Exam item: Give reported GI50 value for C=CC(=O)N1C[C@@H]2C(=O)N(C)c3c(c4cc(F)c(-c5c(O)cccc5F)c(F)c4n(-c4c(C(C)C)ncnc4C(C)C)c3=O)N2C[C@H]1C [Compound 20B]
Marked response: 413

Exam item: Give reported GI50 value for C=CC(=O)N1C[C@@H]2COc3c(c4cc(F)c(-c5c(O)cccc5F)nc4n(-c4c(C)ccnc4C(C)C)c3=O)N2C[C@H]1C (single isomer, unassigned) [Compound 5A]
Marked response: 89

Exam item: Give reported GI50 value for C=CC(=O)N1C[C@@H]2CN(CCCO)c3c(c4cc(F)c(-c5c(O)cccc5F)c(F)c4n(-c4c(C)ccnc4C(C)C)c3=O)N2C[C@H]1C (atropisomer, axis not shown) [Compound 35A-1]
Marked response: 163

Exam item: Give reported GI50 value for C=CC(=O)N1C[C@@H]2COc3c(c4cc(Cl)c(-c5c(O)cccc5F)c(F)c4n(-c4c(C)ccnc4C(C)C)c3=O)N2C[C@H]1C (atropisomer, axis not shown) [Compound 18A-2]
Marked response: 12

---

# TEST DESCRIPTION: In vivo pharmacokinetic evaluation in mice by intravenous injection and oral administration
# ASSAY CONTEXT: mouse, plasma, oral; intragastric administration 5 mg/kg vs intravenous 1 mg/kg, male ICR mice
# Description: In this experimental embodiment, in vivo pharmacokinetic evaluation was performed in mice by intravenous injection and oral administration. […]
MEASURED PARAMETER: bioavailability (%)
// note: answer is a bare numeric in %

Exam item: Give reported bioavailability value for `C=CC(=O)N1CCN(c2nc(=O)n(-c3c(C)ccnc3C(C)C)c3nc(-c4c(O)cccc4F)c(F)cc23)[C@@H](C)C1`
Marked response: 17.6

---

# Tested on: NCI-H358 cells expressing KRAS-G12C
# TEST DESCRIPTION: Growth inhibition of tumor cell line expressing KRAS-G12C (Cell Titer Glo), NCI-H358
# Format: cell-based
# ASSAY CONTEXT: NCI-H358, 72 hours
MEASURED PARAMETER: GI50 (nM)
// note: answer is a bare numeric in nM

Some entries whose results are on file:
compound="C=CC(=O)N1C[C@@H]2COc3c(c4cc(Cl)c(-c5c(O)cccc5F)c(F)c4n(-c4c(C)ccnc4C(C)C)c3=O)N2C[C@H]1C [Compound 18B-1]" measured_parameter=GI50 unit_text=nM readout_number=21
compound="C=CC(=O)N1C[C@@H]2C(=O)N(CCN(C)C)c3c(c4cc(Cl)c(-c5c(F)cccc5OC)c(F)c4n(-c4c(C)ccnc4C(C)C)c3=O)N2C[C@H]1C (atropisomer, axis not shown) [Compound 27D]" measured_parameter=GI50 unit_text=nM readout_number=85
compound="C=CC(=O)N1C[C@@H]2C(=O)Nc3c(c4cc(F)c(-c5c(O)cccc5F)c(F)c4n(-c4c(C)ccnc4C(C)C)c3=O)N2C[C@H]1C [Compound 22A]" measured_parameter=GI50 unit_text=nM readout_number=10
compound="C=CC(=O)N1C[C@@H]2C(=O)N(C)c3c(c4cc(F)c(-c5c(O)cccc5F)c(F)c4n(-c4c(C)ccnc4C(C)C)c3=O)N2C[C@H]1C [Compound 21A-2]" measured_parameter=GI50 unit_text=nM readout_number=10
compound="C=CC(=O)N1C[C@@H]2C(=O)N(C)c3c(c4cc(Cl)c(-c5ccc(F)c6nc(N)sc56)nc4n(-c4c(C)ccnc4C(C)C)c3=O)N2C[C@H]1C (single isomer, unassigned) [Compound 56A]" measured_parameter=GI50 unit_text=nM readout_number=223
compound="C=CC(=O)N1C[C@@H]2C(=O)N(CCN(C)C)c3c(c4cc(Cl)c(-c5c(O)cccc5F)c(F)c4n(-c4c(C)ccnc4C(C)C)c3=O)N2C[C@H]1C (atropisomer, axis not shown) [Compound 26B]" measured_parameter=GI50 unit_text=nM readout_number=22
compound="C=CC(=O)N1CC2C(=O)N(CCN(C)C)c3c(c4cc(F)c(-c5c(O)cccc5F)c(F)c4n(-c4c(C)ccnc4C(C)C)c3=O)N2CC1C (centres unmarked) [Compound 24B]" measured_parameter=GI50 unit_text=nM readout_number=68
compound="C=CC(=O)N1CC2COc3c(c4cc(F)c(-c5c(O)cccc5F)c(F)c4n(-c4c(C)ccnc4C(C)C)c3=O)N2CC1C (single isomer, unassigned)" measured_parameter=GI50 unit_text=nM readout_number=5
compound="C=CC(=O)N1C[C@@H]2COc3c(c4cc(Cl)c(-c5c(O)cccc5F)c(F)c4n(-c4c(C)ccnc4C(C)C)c3=O)N2C[C@H]1C [Compound 18A-1]" measured_parameter=GI50 unit_text=nM readout_number=2
compound="C=CC(=O)N1CC2C(=O)N(CCN(C)C)c3c(c4cc(F)c(-c5c(O)cccc5F)c(F)c4n(-c4c(C)ccnc4C(C)C)c3=O)N2CC1C (centres unmarked) [Compound 24C]" measured_parameter=GI50 unit_text=nM readout_number=11

Exam item: Give reported GI50 value for C=CC(=O)N1C[C@@H]2CN(C)c3c(c4cc(F)c(-c5c(O)cccc5F)c(F)c4n(-c4c(C)ccnc4C(C)C)c3=O)N2C[C@H]1C (single isomer, unassigned) [Compound 16A-2]
Marked response: 74

---

# System: NCI-H358 cells expressing KRAS-G12C
# TEST DESCRIPTION: Growth inhibition of tumor cell line expressing KRAS-G12C (Cell Titer Glo), NCI-H358
# Type: cell-based
# ASSAY CONTEXT: NCI-H358, 72 hours
Below, each entry is listed with its recorded GI50.
// note: answer is a bare numeric in µM

Some entries whose results are on file:
molecule="C=CC(=O)N1C[C@@H]2COc3c(c4cc(Cl)c(-c5c(O)cccc5F)c(F)c4n(-c4c(C)ccnc4C(C)C)c3=O)N2C[C@H]1C [Compound 18A]" unit_text=µM readout_number=0.006
molecule="C=CC(=O)N1C[C@@H]2C(=O)N(CCN(C)C)c3c(c4cc(Cl)c(-c5c(O)cccc5F)c(F)c4n(-c4c(C)ccnc4C(C)C)c3=O)N2C[C@H]1C (single isomer, unassigned) [Compound 26C]" unit_text=µM readout_number=0.002
molecule="C=CC(=O)N1C[C@@H]2C(=O)N(CCN(C)C)c3c(c4cc(Cl)c(-c5c(F)cccc5OC)c(F)c4n(-c4c(C)ccnc4C(C)C)c3=O)N2C[C@H]1C (atropisomer, axis not shown) [Compound 27C]" unit_text=µM readout_number=0.005
molecule="C=CC(=O)N1C[C@@H]2CN(CCCO)c3c(c4cc(F)c(-c5c(O)cccc5F)c(F)c4n(-c4c(C)ccnc4C(C)C)c3=O)N2C[C@H]1C [Compound 35A]" unit_text=µM readout_number=0.053
molecule="C=CC(=O)N1CC2C(=O)N(CCN(C)C)c3c(c4cc(F)c(-c5c(O)cccc5F)c(F)c4n(-c4c(C)ccnc4C(C)C)c3=O)N2CC1C (stereo not drawn) [Compound 24D]" unit_text=µM readout_number=0.232

Exam item: Give reported GI50 value for C=CC(=O)N1C[C@@H]2C(=O)N(C)c3c(c4cc(Cl)c(-c5c(O)cccc5F)c(F)c4n(-c4c(C)ncnc4C(C)C)c3=O)N2C[C@H]1C (atropisomer, axis not shown) [Compound 49A-1]
Marked response: 0.003

Exam item: Give reported GI50 value for C=CC(=O)N1C[C@@H]2C(=O)N(CCN(C)C)c3c(c4cc(Cl)c(-c5c(O)cccc5F)c(F)c4n(-c4c(C)ccnc4C(C)C)c3=O)N2C[C@H]1C (atropisomer, axis not shown) [Compound 26D]
Marked response: 0.082

Exam item: Give reported GI50 value for C=CC(=O)N1CC2C(=O)Nc3c(c4cc(F)c(-c5c(O)cccc5F)c(F)c4n(-c4c(C)ccnc4C(C)C)c3=O)N2CC1C (single isomer, unassigned) [Compound 22A-2]
Marked response: 0.042

Exam item: Give reported GI50 value for C=CC(=O)N1C[C@@H]2COc3c(c4cc(Cl)c(-c5c(O)cccc5F)c(F)c4n(-c4c(C)ccnc4C(C)C)c3=O)N2C[C@H]1C (atropisomer, axis not shown) [Compound 18B]
Marked response: 0.138
